Hey, just so you know, these numbers are from the supplement of paper PMC10065799.

# system: Fes (UniProt P07332)
# Sequence (P07332 whole entry, looked up): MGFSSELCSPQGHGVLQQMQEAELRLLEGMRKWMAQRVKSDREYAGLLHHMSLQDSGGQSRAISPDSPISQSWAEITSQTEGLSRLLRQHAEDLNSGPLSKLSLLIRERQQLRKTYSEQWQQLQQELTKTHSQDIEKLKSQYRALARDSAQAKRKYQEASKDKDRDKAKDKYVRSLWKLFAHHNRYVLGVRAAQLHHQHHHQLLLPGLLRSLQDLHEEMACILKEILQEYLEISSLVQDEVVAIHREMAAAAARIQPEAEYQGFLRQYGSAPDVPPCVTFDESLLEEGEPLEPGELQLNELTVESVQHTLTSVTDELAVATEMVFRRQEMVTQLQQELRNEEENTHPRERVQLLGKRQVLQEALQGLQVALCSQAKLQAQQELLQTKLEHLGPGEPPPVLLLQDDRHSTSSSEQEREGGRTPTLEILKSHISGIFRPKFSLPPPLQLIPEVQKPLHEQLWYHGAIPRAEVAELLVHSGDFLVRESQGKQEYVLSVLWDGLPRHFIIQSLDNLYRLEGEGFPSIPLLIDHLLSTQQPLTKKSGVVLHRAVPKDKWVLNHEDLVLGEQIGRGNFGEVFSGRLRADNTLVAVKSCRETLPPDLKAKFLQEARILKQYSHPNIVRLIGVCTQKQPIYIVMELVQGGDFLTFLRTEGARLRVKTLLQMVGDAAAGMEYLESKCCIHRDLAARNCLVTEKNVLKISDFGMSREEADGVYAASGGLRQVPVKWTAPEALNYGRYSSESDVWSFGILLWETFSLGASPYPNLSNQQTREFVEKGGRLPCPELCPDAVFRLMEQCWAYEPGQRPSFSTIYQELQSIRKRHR
# measurement-description: phosphorylation enrichment, bacterial display (enrichment ratio); higher = better substrate or ligand; peptides without Tyr show the background;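 note: 11-residue human phosphosite peptides and single-mutation variants displayed on the E. coli surface, counted by deep sequencing, each peptide's frequency after selection divided by its frequency in the unselected input library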;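 note: frequency after pTyr selection over input frequency; kinase dosed for 20-30% of maximal phosphorylation in three min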
measurement-name: phosphorylation enrichment
Just the number.

sequence-code: WLFFRYLPIGC [ATP2A2_Y836_A838P]
phosphorylation enrichment: 1.3

Now for the sequence whose phosphorylation enrichment we want.
Give phosphorylation enrichment for the following sequence: DRPASYKKKSM [PDGFRA_Y768] 0.517

----------
# system: Jak2 (UniProt O60674)
# Sequence (O60674 whole entry, looked up): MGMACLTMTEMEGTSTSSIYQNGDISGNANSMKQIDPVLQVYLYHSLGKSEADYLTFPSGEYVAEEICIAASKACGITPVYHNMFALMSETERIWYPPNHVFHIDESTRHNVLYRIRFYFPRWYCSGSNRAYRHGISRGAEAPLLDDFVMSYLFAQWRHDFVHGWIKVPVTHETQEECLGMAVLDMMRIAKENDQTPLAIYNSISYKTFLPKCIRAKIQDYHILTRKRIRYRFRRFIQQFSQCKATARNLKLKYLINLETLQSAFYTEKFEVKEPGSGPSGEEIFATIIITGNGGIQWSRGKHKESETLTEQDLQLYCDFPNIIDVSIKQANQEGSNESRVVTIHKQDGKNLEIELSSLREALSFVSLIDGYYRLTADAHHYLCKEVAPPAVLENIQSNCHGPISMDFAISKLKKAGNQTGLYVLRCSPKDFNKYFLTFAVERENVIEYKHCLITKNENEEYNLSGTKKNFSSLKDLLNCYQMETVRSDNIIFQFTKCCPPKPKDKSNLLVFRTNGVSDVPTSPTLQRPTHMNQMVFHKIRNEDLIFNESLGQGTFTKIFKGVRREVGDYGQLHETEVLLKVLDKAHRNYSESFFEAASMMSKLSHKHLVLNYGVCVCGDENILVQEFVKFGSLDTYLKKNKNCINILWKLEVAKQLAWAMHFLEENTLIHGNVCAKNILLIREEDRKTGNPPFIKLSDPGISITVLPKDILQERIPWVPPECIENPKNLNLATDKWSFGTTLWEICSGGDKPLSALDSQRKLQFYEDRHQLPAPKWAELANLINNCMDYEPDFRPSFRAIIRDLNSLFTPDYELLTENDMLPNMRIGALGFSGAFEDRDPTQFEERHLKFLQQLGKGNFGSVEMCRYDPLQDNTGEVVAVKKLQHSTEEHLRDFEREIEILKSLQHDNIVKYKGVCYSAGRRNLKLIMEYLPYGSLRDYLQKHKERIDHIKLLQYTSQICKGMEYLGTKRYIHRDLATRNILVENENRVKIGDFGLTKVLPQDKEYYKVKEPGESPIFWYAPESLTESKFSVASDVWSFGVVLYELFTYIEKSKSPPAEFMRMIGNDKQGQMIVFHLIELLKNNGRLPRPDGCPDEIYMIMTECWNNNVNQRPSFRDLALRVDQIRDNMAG
# measurement-description: phosphorylation enrichment, bacterial display (enrichment ratio); higher = better substrate or ligand; peptides without Tyr show the background
measurement-name: phosphorylation enrichment

Some solved entries appear below for comparison.
sequence-code: QMQLKYSQSDL [SMC1A_Y714_R711Q]
system: Jak2 (UniProt O60674)
phosphorylation enrichment: 0.569
//
sequence-code: DFLEKYFKFGS [NNMT_Y24_YF]
system: Jak2 (UniProt O60674)
phosphorylation enrichment: 1.8
//
sequence-code: TKDTFHKQPMF [GBA_Y451_Y451H]
system: Jak2 (UniProt O60674)
phosphorylation enrichment: 0.468
//
sequence-code: DELDKYSEVLK [TPM1_Y60_A63V]
system: Jak2 (UniProt O60674)
phosphorylation enrichment: 1.37
//
sequence-code: ENRKFYMDLKE [PURA_Y156_YF]
system: Jak2 (UniProt O60674)
phosphorylation enrichment: 0.963
//
sequence-code: KGPGEYVNIEF [IRS1_Y896_S892G]
system: Jak2 (UniProt O60674)
phosphorylation enrichment: 0.691

Answer with the recorded phosphorylation enrichment for the sequence listed here: GLSDLYVKIHL [SYT2_Y309_P308L] 1.38

Given SLGSPYEQPPR [PDLIM4_Y137_G138E] , respond with its phosphorylation enrichment. 0.673

Give the measured phosphorylation enrichment for LLASRYDSPIN [ABLIM1_Y638] 1.59

Give phosphorylation enrichment for RMSQRYGDVLQ [CYP1A2_Y72] 0.744

Check the records and state phosphorylation enrichment for QEIATYRRQLE [KRT14_Y415_L418Q] 0.976

Please report phosphorylation enrichment for the following sequence: LIDGYYRLTAD [JAK2_Y373] 10.4

Please list phosphorylation enrichment recorded for the sequence KLGDVYVNDAF [PGK1_Y161] 0.801

----------
# system: FGFR1 (UniProt P11362)
# Sequence (P11362 whole entry, looked up): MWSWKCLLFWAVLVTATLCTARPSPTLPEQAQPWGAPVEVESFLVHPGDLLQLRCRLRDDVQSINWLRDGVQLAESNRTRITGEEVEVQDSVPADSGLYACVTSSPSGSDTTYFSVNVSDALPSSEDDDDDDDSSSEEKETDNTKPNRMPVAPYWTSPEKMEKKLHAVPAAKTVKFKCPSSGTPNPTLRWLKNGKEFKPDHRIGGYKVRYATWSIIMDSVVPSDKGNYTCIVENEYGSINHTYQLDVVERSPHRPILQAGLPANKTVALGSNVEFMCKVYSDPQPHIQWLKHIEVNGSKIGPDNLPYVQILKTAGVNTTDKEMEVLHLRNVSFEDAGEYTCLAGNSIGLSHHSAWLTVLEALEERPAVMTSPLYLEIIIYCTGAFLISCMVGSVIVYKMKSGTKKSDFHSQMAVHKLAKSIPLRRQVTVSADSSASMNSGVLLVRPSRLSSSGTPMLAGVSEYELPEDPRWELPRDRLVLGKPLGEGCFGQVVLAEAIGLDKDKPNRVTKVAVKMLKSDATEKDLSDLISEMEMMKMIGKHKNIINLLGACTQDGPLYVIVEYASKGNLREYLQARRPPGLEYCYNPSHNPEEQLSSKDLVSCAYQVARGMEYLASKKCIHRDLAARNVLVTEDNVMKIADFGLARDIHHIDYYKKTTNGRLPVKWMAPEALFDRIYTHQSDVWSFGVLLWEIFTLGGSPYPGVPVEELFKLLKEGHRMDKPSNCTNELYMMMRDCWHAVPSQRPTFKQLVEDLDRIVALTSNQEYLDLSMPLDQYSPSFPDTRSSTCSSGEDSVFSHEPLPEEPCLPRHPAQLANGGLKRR
# measurement-description: phosphorylation enrichment, bacterial display (enrichment ratio); higher = better substrate or ligand; peptides without Tyr show the background
Assign yes (1) to entries whose phosphorylation enrichment meets or exceeds 0.5; assign no (0) to the rest.

Record YYLGKYLQEVL [KLB_Y910] ; criterion: phosphorylation enrichment no lower than 0.5. Met? yes (1)

Check if phosphorylation enrichment >= 0.5 (inclusive). Item: SEKIVYGHVDD [ACO2_Y71_L74V] no (0)

Has GQKTLYSFFSP [UNG_Y8] a recorded phosphorylation enrichment greater than or equal to 0.5? yes (1)

Textbook exercise: given the entry CTTIHYNYMRN [TP53_Y234_C238R] , state whether its phosphorylation enrichment is greater than or equal to 0.5. yes (1)

API: above_or_equal(metric=phosphorylation enrichment, cutoff=0.5) for item EDNPEYMRLRN [ADD2_Y31_D28N] yes (1)

In plain terms: is recorded phosphorylation enrichment at least 0.5 for QNTGYYYDLYG [PTPN11_Y62_D61Y] ? yes (1)
